Reported growth inhibition by item:
Experiment: NCI Yeast Anticancer Drug Screen. Data for the mec2-1 strain (AID 157)
Details: S. cerevisiae mec2-1 strain, at 5.0 µM (retest, dose inferred, filed as 0.5), active compounds read high
This is part of a sample that, as a whole, favours compounds with a hit. Of some 79,000 tested, about 15% had one in any assay. Calls of active or inactive are those of the source. Cut-off read from the data, not from the text of the source: active = growth inhibition above about 70%; inactive = the rest.
Experimental readout: growth inhibition

{"Compound": "COc1ccc(C2CC(=O)CC(=O)C2)cc1", "Recorded result": "5% (inactive)"}
{"Compound": "CCCC(=O)c1ccc(OC)cc1", "Recorded result": "1% (inactive)"}
{"Compound": "Cc1c(Cl)ccc2c(C(O)CNCc3ccccc3)cc(-c3ccc(Cl)cc3)nc12 (stereo unspecified)", "Recorded result": "58% (inactive)"}
{"Compound": "CCOC(=O)C1=C(c2ccccc2)c2ccccc2OC1C(=O)O (stereo unspecified)", "Recorded result": "22% (inactive)"}
{"Compound": "CCn1c(O)c(C=Nc2ccccc2)s/c1=N/Nc1nc(-c2ccc(O)c(O)c2)cs1", "Recorded result": "-22% (inactive)"}
{"Compound": "COc1ccc2c(c1)CCc1c(-c3noc4c3CCc3cc(OC)ccc3-4)noc1-2", "Recorded result": "5% (inactive)"}
